Assignment: determine reported TGI for the given compounds.
# Tested on: SK-MEL-2 melanoma
# protocol: NCI tumour cell line growth inhibition, 48 h

Below are worked cases with known answers.
compound=CCOC(=O)c1c(C)c2c(n1C)CSc1cc(S(=O)(=O)c3ccccc3)c(=O)[nH]c1-2 reading="> 100 µM"
compound=CS(=O)(=O)C(=Cc1ccccc1Cl)S(C)(=O)=O reading="> 100 µM"
compound=Cc1cc(NC(=O)CCc2ccc(N3C(N)=NC(N)=NC3(C)C)cc2)ccc1S(=O)(=O)F reading="> 100 µM"
compound=NC(N)=NC(N)=NCCc1ccccc1 reading="> 100 µM"
compound="Cc1ccc(C2SC(N)=Nc3c2c(C)nn3C(=O)c2ccncc2)cc1 (stereo unspecified)" reading="> 10 µM"

Next compound, please.
I am curious: what TGI value has been reported for CCCCCCCCCCCCCCCCCCNc1ccn(C2OC(CO)C(OP(=O)(O)OCC3CCC(n4ccc(N)nc4=O)O3)C2O)c(=O)n1 (stereo unspecified) ?
> 100 µM
